# System: Bacillus subtilis
# measurementDescription: cleaved RNA product abundance (RNA/gDNA barcode ratio) relative to median wild-type variant (ratio to wild type); higher = more accumulation of the downstream cleavage product
# assayContext: experiment (reporter, strain, medium): exp 4a: truncated aprE reporter, strain BJT201 with 2% xylose (RNase J1 expressed); cleavage site: cggR-gapA (positions -7 to +36 mutated)
valueType: cleaved RNA product abundance
No unit in the answer, only the number.

recordsequence=ACAGACGAAGGAGCCGCAAAGAAGTTATAAAGGGTTGAATAATCCCTCAATATAAATATCTCTCACTTATTTAAA targetofassay="Bacillus subtilis" valuetype="cleaved RNA product abundance" quantitativereadout=0.24
recordsequence=ACAGACGAAGGAGCCGCAACGAAGTTATTAAGGGATGAATAATCCCTCAAAATAAATATCTCTCACTTATTTAAA targetofassay="Bacillus subtilis" valuetype="cleaved RNA product abundance" quantitativereadout=0.357
recordsequence=ACAGACGAAGGAGCCGCAAAGAAGTAATTAAGGCATGAATAATCCCTCAATATAAATATCTCTCACTTATTTAAA targetofassay="Bacillus subtilis" valuetype="cleaved RNA product abundance" quantitativereadout=0.0969
recordsequence=ACAGACGAAGGAGCCGCAAAGAAGTTATTAAGGGATGAATAATCCCTCAAGATAAATATCTCTCACTTATTTAAA targetofassay="Bacillus subtilis" valuetype="cleaved RNA product abundance" quantitativereadout=0.256
recordsequence=ACAGACGAAGGAGCCGCAAAGAAGTTATTAAGGGATGAATAATACCTCAATATATATATCTCTCACTTATTTAAA targetofassay="Bacillus subtilis" valuetype="cleaved RNA product abundance" quantitativereadout=0.123
recordsequence=ACAGACGAAGGAGCCGCAAAGAAGTAATTAAGCGATGAATAATCCCTCAATATAAATATCTCTCACTTATTTAAA targetofassay="Bacillus subtilis" valuetype="cleaved RNA product abundance" quantitativereadout=0.157
recordsequence=ACAGACGAAGGAGCCGCAAAGAAGTTATTAAGGGATGAATAATCACTCAATATTAATATCTCTCACTTATTTAAA targetofassay="Bacillus subtilis" valuetype="cleaved RNA product abundance" quantitativereadout=0.0358
recordsequence=ACAGACGAAGGAGCCGCAAAGACGTTATTAAGGTATGAATAATCCCTCAATATAAATATCTCTCACTTATTTAAA targetofassay="Bacillus subtilis" valuetype="cleaved RNA product abundance" quantitativereadout=0.153

cleaved RNA product abundance reading for ACAGACGAAGGAGCCGCAAATAAGTTATTAAGGGCTGAATAATCCCTCAATATAAATATCTCTCACTTATTTAAA : 0.627

cleaved RNA product abundance reading for ACAGACGAAGGAGCCGCAAAAAAGTCATTAAGGGATGAATAATCCCTCAATATAAATATCTCTCACTTATTTAAA : 0.37

cleaved RNA product abundance reading for ACAGACGAAGGAGCCGCAAAGGAGTTATTAAGGGATGAATAATCCCCCAATATAAATATCTCTCACTTATTTAAA : 0.247

cleaved RNA product abundance reading for ACAGACGAAGGAGCCGCAAAGAAGTTATTAAGGCATGAATAATCCCTCACTATAAATATCTCTCACTTATTTAAA : 0.136

cleaved RNA product abundance reading for ACAGACGAAGGAGCCGCACAGAAGATATTAAGGGATGAATAATCCCTCAATATAAATATCTCTCACTTATTTAAA : 0.364

cleaved RNA product abundance reading for ACAGACGAAGGAGCCGCAAAGAAGTTAATAAGGGATGAATAATACCTCAATATAAATATCTCTCACTTATTTAAA : 0.144

cleaved RNA product abundance reading for ACAGACGAAGGAGCCGCAAAGAAGTTATTAAGGGACGAATAATCACTCAATATAAATATCTCTCACTTATTTAAA : 0.0856
